Values from patent US7517911B2

test system: human skin; test: Test for application to human skin (patch test, CTFA Guideline); assay type: in vivo; details: 24 hours later; ± = Mild erythema; 1% in patch base, n = 30
QUANTITY_NAME: The number of volunteers having reaction, mark ±
Quick one: just the number, no unit, thanks!

Use the examples below as a reference point.
>  <COMPOUND>
COc1cc(CC(=O)Oc2cc(C)ccc2C(C)C)cc(OC)c1OC [Example 1]

>  <NUMERIC_VALUE>
2

$$$$
>  <COMPOUND>
COc1cc(/C=C/C(=O)Oc2cc(C(C)C)ccc2C)cc(OC)c1OC [Example 4]

>  <NUMERIC_VALUE>
1

$$$$
>  <COMPOUND>
COc1cc(CCC(=O)Oc2cc(C(C)C)ccc2C)cc(OC)c1OC [Example 6]

>  <NUMERIC_VALUE>
0

$$$$

Turning now to a further compound:
// query The number of volunteers having reaction, mark ± value for entry COc1cc(/C=C/C(=O)Oc2cc(C)ccc2C(C)C)cc(OC)c1OC [Example 3]
0
